# System: SNB-75 CNS
# RUN DESCRIPTION: NCI-60 one-dose screen, 48 h (100 = growth as untreated, 0 = no growth, -100 = all killed)
# TEST CONDITIONS: 10 µM unless noted
The panel holds about 83,000 compounds, 20% with a hit somewhere; the sample as a whole holds those more often.
As shown below, each of these compounds has a reported growth value.
Express your answer in %, writing the number without its unit.

Here are 6 compounds together with their reported answers.
COMPOUND	TARGET ENTITY	OBSERVED
COc1ccc(C(=O)/C=C/c2ccc(Cl)c(Cl)c2)cc1S(N)(=O)=O	SNB-75 CNS	6.46
Cc1ccc(/C=C/c2n(Cc3ccc4ccccc4c3)c3ccccc3[n+]2Cc2ccc3ccccc3c2)cc1	SNB-75 CNS	-88.3
C=CC[N+](C)(C)CCn1c2ccccc2c2nc3cc(C)c(C)cc3nc21	SNB-75 CNS	88.5
N/C(=N\c1nc2ccccc2s1)NC(=O)Nc1c(Cl)cccc1Cl	SNB-75 CNS	27.7
Cn1cc(-c2nc(N)nnc2-c2c[nH]c3ccc(F)cc23)c2cc(Br)cnc21	SNB-75 CNS	-15.8
Cc1sc(C(NC(=O)OCCn2c([N+](=O)[O-])cnc2C)C(F)(F)Cl)nc1-c1ccc(OC(F)(F)F)cc1 (centres undefined)	SNB-75 CNS	-32.9

Need growth, item `N#Cc1c(-c2cccnc2)cc(-c2ccc3ccccc3c2)[nH]c1=O` 14.4

Need growth, item `CCCCCCn1c(O)c(N=Nc2nc(-c3cc4ccccc4oc3=O)cs2)c2ccccc21` 81.4

Need growth, item `COc1ccc(-c2nc3ccc(C(=O)NN4C(=O)c5ccc([N+](=O)[O-])cc5C4=O)cc3[nH]2)cc1` 83.3
